Entry source: paper PMC3894171

# system.name: hNELF-E (human, UniProt P18615 1-380)
# Sequence (P18615 whole entry): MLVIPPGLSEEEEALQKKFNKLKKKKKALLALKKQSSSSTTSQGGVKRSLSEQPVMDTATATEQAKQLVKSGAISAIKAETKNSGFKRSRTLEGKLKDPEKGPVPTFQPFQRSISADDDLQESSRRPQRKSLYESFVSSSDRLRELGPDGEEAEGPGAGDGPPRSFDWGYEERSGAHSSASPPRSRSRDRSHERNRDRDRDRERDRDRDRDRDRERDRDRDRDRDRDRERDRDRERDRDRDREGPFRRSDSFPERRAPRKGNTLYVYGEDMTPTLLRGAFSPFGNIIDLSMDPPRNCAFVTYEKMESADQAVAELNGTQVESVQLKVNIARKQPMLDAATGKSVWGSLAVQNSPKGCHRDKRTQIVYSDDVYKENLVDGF
# assay.remarks: F-EMSA; 10 mM HEPES-NaOH pH 7.5, 100 mM NaCl, 25 mM KCl, 1 mM MgCl2, 0.02% Tween-20, 0.01% IGEPAL CA-630, 10 µg/ml yeast tRNA; 2 nM RNA, 0-2000 nM protein, 1-2 h, binding temperature not stated; gel 5% acrylamide 0.5X TBE at 4 °C
# test.settings: protein: recombinant; tags: N-terminal His6 (pHIS-parallel1); label: 3' fluorescein (5-thiosemicarbazide); putative K-turn stem-loop
measured.endpoint: Kd (nM)
Output spec: scalar in nM, unitless text.

*Q* Look up Kd for this binder: GGCCCCACUGAGGAUGCCCACGGGCGAUUGGGGCCA (structured_RNA) [Napt1min]
*A* 420
